- System: WM3629 cells
- TEST METHOD NOTES: WM3629 cell proliferation assay (2), resazurin, 384-well
- Assay type: cell-based
- COND: inhibition of cell proliferation, 67-72 hours
pIC50: −log10 of the molar value.
Task for the reader: assign each of the following compounds its reported pIC50.

In [3]: df
Out[3]:
                              record_smiles        result
0  CNC(=O)c1cc(-c2cc(-c3cc(NC(=O)N4CC[C@H](C(F)(F)F)C4)ccc3C)ccn2)ccn1  6.00 to 6.30

Now let's try a different one.
// recorded pIC50 for CNC(=O)c1cc(-c2cncc(-c3cc(NC(=O)N4CC[C@H](C(F)(F)F)C4)ccc3C)c2)ccn1 : 5.00 to 6.00
